# method: Antiproliferative activity against human RT112 cells after 72 hrs by MTT assay
# Format: functional, cell-based
# measurement parameters: RT-112, 72 h
pIC50: −log10 of the molar value.
Here, each record is paired with measured pIC50 data.

[
  {
    "cpd smiles": "CCCCCCCCCCCCCCCCNC(=O)[C@H](O)c1ccccc1",
    "pIC50": 4.55
  },
  {
    "cpd smiles": "CCCCCCCCCCCCCCCCNC(=O)c1cc(O)ccc1O",
    "pIC50": 5.15
  },
  {
    "cpd smiles": "CCCCCCCCCCCCCCCNC(=O)CCO",
    "pIC50": 4.23
  },
  {
    "cpd smiles": "CCCCCCCCCCCCCCCCNC(=O)c1ccccc1O",
    "pIC50": 5.24
  },
  {
    "cpd smiles": "CCCCCCCCCCCCCCCCNC(=O)c1ccncc1",
    "pIC50": 4.12
  },
  {
    "cpd smiles": "CCCCCCCCCCCCCCCCNC(=O)[C@@H](O)c1ccccc1",
    "pIC50": 4.60
  }
]

----------
# target: N-acylethanolamine-hydrolyzing acid amidase (Homo sapiens, UniProt Q02083)
# method: Inhibition of recombinant human NAAA using PAMCA as substrate preincubated for 30 mins followed by substrate addition measured every 3 mins for 2.5 hrs by fluorescence HTS method
pIC50: −log10 of the molar value.

[
  {
    "cpd smiles": "CCCCCCCCCCCCCCCCNC(=O)c1cc(O)ccc1O",
    "limit sign": "=",
    "pIC50": 4.42
  },
  {
    "cpd smiles": "CCCCCCCCCCCCCCCCNC(=O)c1ccccc1O",
    "limit sign": "=",
    "pIC50": 4.96
  },
  {
    "cpd smiles": "CCCCCCCCCCCCCCCNC(=O)CCO",
    "limit sign": "=",
    "pIC50": 4.47
  },
  {
    "cpd smiles": "CCCCCCCCCCCCCCCNC(=O)c1ccc2ccccc2c1",
    "limit sign": "<",
    "pIC50": 4.00
  },
  {
    "cpd smiles": "CCCCCCCCCCCCCCCCNC(=O)c1ccncc1",
    "limit sign": "=",
    "pIC50": 4.01
  },
  {
    "cpd smiles": "CCCCCCCCCCCCCCCCNC(=O)[C@@H](O)c1ccccc1",
    "limit sign": "=",
    "pIC50": 4.11
  },
  {
    "cpd smiles": "CCCCCCCCCCCCCCCCNC(=O)c1ccccc1",
    "limit sign": "=",
    "pIC50": 4.35
  },
  {
    "cpd smiles": "CCCCCCCCCCCCCCCCNC(=O)[C@H](O)c1ccccc1",
    "limit sign": "=",
    "pIC50": 4.70
  }
]

----------
# target: N-acylethanolamine-hydrolyzing acid amidase (Homo sapiens) (UniProt Q02083)
# Sequence (whole entry): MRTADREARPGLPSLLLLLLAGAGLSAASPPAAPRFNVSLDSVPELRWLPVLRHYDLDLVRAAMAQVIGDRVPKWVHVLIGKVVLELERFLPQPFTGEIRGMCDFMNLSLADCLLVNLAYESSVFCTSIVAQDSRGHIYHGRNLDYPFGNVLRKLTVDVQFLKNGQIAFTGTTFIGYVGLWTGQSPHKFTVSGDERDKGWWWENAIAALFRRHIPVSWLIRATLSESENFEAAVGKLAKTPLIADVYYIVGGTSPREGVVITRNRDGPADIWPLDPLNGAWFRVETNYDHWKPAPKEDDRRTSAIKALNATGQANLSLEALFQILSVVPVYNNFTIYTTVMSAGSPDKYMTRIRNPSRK
# method: Inhibition of recombinant human NAAA using PAMCA as substrate preincubated for 30 mins followed by substrate addition measured every 3 mins for 2.5 hrs by fluorescence HTS method

[
  {
    "cpd smiles": "CCCCCCCCCCCCCCCCNC(=O)[C@@H](O)c1ccccc1",
    "target": "N-acylethanolamine-hydrolyzing acid amidase (Homo sapiens) (UniProt Q02083)",
    "inhibition": "Dose-dependent effect"
  },
  {
    "cpd smiles": "CCCCCCCCCCCCCCCCNC(=O)c1ccccc1O",
    "target": "N-acylethanolamine-hydrolyzing acid amidase (Homo sapiens) (UniProt Q02083)",
    "inhibition": "Dose-dependent effect"
  },
  {
    "cpd smiles": "CCCCCCCCCCCCCCCCNC(=O)c1cc(O)ccc1O",
    "target": "N-acylethanolamine-hydrolyzing acid amidase (Homo sapiens) (UniProt Q02083)",
    "inhibition": "Dose-dependent effect"
  },
  {
    "cpd smiles": "CCCCCCCCCCCCCCCCNC(=O)[C@H](O)c1ccccc1",
    "target": "N-acylethanolamine-hydrolyzing acid amidase (Homo sapiens) (UniProt Q02083)",
    "inhibition": "Dose-dependent effect"
  },
  {
    "cpd smiles": "CCCCCCCCCCCCCCCCNC(=O)c1ccncc1",
    "target": "N-acylethanolamine-hydrolyzing acid amidase (Homo sapiens) (UniProt Q02083)",
    "inhibition": "Dose-dependent effect"
  }
]

----------
# method: Antiproliferative activity against human RT4 cells after 72 hrs by MTT assay
# Type: functional, cell-based
# measurement parameters: RT-4, 72 h

[
  {
    "cpd smiles": "CCCCCCCCCCCCCCCCNC(=O)[C@H](O)c1ccccc1",
    "limit sign": "=",
    "IC50 (µM)": 3.5
  },
  {
    "cpd smiles": "CCCCCCCCCCCCCCCCNC(=O)c1ccncc1",
    "limit sign": "=",
    "IC50 (µM)": 41.7
  },
  {
    "cpd smiles": "CCCCCCCCCCCCCCCCNC(=O)[C@@H](O)c1ccccc1",
    "limit sign": ">",
    "IC50 (µM)": 100
  },
  {
    "cpd smiles": "CCCCCCCCCCCCCCCCNC(=O)c1ccccc1O",
    "limit sign": "=",
    "IC50 (µM)": 63.3
  }
]
